Quick record: pIC50, UniProtKB P08254.
Sequence (P08254 100-477, species assumed): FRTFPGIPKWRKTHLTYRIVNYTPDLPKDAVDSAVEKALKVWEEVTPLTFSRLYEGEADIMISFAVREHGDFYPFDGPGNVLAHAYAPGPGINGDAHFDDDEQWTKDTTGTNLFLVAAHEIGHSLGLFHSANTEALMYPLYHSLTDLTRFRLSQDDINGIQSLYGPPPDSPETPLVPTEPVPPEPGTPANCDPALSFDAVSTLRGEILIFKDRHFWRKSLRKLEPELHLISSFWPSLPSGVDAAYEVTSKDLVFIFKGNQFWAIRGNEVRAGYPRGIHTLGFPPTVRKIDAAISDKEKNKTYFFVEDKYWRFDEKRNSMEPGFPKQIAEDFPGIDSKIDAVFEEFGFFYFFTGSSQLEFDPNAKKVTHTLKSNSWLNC
pIC50: −log10 of the molar value.
readout.kind: pIC50

compound | measured.target | readout.kind | assay.value
CNC(=O)[C@H](Cc1cccc2c1CCCC2)NC(=O)[C@H](CC(C)C)[C@H](C)C(=O)NO [OSU8-1] | UniProtKB P08254 | pIC50 | 8.54
CNC(=O)[C@H](Cc1cccc2ccccc12)NC(=O)[C@@H](CC(=O)NO)CC(C)C [OSU7-6] | UniProtKB P08254 | pIC50 | 8.70

* * *

- measured.target: MMP-1 (Homo sapiens, UniProt P03956)
- Sequence (P03956 100-469): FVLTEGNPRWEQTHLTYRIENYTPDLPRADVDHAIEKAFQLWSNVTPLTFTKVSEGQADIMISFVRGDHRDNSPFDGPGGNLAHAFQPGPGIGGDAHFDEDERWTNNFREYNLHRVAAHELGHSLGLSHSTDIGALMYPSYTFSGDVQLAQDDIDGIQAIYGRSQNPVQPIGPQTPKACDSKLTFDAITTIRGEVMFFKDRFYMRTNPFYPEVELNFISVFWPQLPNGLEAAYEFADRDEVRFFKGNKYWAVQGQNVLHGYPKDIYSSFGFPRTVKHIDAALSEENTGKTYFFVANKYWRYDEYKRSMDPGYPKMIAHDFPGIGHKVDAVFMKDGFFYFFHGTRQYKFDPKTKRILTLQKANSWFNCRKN
- assay.overview: MMP-1 inhibition
- Type: biochemical
- applied.conditions: read-out: IC50s for all three MMPs; range across MMP-1, MMP-3 and MMP-9
readout.kind: IC50

Exercise: Give its IC50 value. Item: CNC(=O)[C@H](Cc1cccc2c1CCCC2)NC(=O)[C@H](CC(C)C)[C@H](C)C(=O)NO [OSU8-1]
Key: 0.3 to 2.9 nM
